- experiment_description: In vitro photo-release and hydrolytic release of dicamba in an aqueous medium (Example 36)
- Assay type: physicochemical
- assay_conditions: 0.01 mM (0.005 mM for diesters), quartz tube, Day 7
Assign Conversion to Dicamba, Light, Day 7 to each entry below.
# answer = value followed by unit

The value of Conversion to Dicamba, Light, Day 7 measured for the molecule COc1c(Cl)ccc(Cl)c1C(=O)Oc1nc(C(C)(C)C)cc(C(C)(C)C)c1C#N [Ester 36a] turned out to be 63%

The value of Conversion to Dicamba, Light, Day 7 measured for the molecule COc1c(Cl)ccc(Cl)c1C(=O)Oc1ccccn1 [Ester 14, 2-Hydroxypyridine Ester of Dicamba] turned out to be 67%

The value of Conversion to Dicamba, Light, Day 7 measured for the molecule COc1c(Cl)ccc(Cl)c1C(=O)Oc1ccc(=O)n(CCC=O)n1 [Ester 33a] turned out to be 23%

The value of Conversion to Dicamba, Light, Day 7 measured for the molecule COc1c(Cl)ccc(Cl)c1C(=O)Oc1ccc(=O)n(CCC#N)n1 [Ester 34a] turned out to be 29%

The value of Conversion to Dicamba, Light, Day 7 measured for the molecule C=C(C(=O)OCC)C(OC(=O)c1c(Cl)ccc(Cl)c1OC)c1ccccc1[N+](=O)[O-] (centres unmarked) [Ester 31a] turned out to be 46%

The value of Conversion to Dicamba, Light, Day 7 measured for the molecule CCOC(=O)CCn1nc(OC(=O)c2c(Cl)ccc(Cl)c2OC)ccc1=O [Ester 35a] turned out to be 60%

The value of Conversion to Dicamba, Light, Day 7 measured for the molecule COc1c(Cl)ccc(Cl)c1C(=O)Oc1ccc(OC(=O)c2c(Cl)ccc(Cl)c2OC)nn1 [Ester 17, Maleic Hydrazide Diester of Dicamba] turned out to be 42%

The value of Conversion to Dicamba, Light, Day 7 measured for the molecule COc1ccc(COC(=O)c2c(Cl)ccc(Cl)c2OC)cc1 [Ester 29a, 4-methoxybenzyl ester of dicamba] turned out to be 76%

Where do these numbers come from? They come from patent US20170029355A1.
